# PROTOCOL: recombinant barcode read abundance after kanamycin selection (control-corrected) (log10(CPM+1)); higher = more efficient recombination; sequences stand for … in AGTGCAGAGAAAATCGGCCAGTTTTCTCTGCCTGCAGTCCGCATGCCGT…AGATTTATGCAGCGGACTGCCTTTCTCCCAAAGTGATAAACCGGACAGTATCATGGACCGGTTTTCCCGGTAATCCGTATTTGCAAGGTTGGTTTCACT; site = the 11-nt target;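 also: IS621 recombinase and bridge RNA in Escherichia coli cells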
Measured recombinant barcode read abundance (log10) determines class: lo (below 0.2), med (0.2 to below 0.7), hi (0.7 or more)

Examples with answers:
* GTGACCGCTTGGGTTCTAACCTGTTGCCT (site GTCACCGCTAG) | med
* GGGGTATCTTGGGTTCTAACCTGTTGCCT (site GCGGTATCTAG) | lo
* CTTTGCCCTTGGGTTCTAACCTGTTGCCT (site CGTTGCCCTAG) | lo
* AGAATATCTTGGGTTCTAACCTGTTGCCT (site AGAATATCTAG) | hi
* CTCAAGACTTGGGTTCTAACCTGTTGCGG (site CTCAAGACTCC) | hi
* GGTTCTTCTTGGGTTCTAACCTGTTGCCT (site GGTTCTTCTAG) | med
* GTTGGAGCTTGGGTTCTAACCTGTTGCCT (site GTTAGAGCTAG) | hi
* AATGTACCTTGGGTTCTAACCTGTTGCCT (site TATGTACCTAG) | hi

Q: Tag the class for CGCGCAGCTTGGGTTCTAACCTGTTGCCT (site CGGGCAGCTAG)
Result: lo

Q: Bin this entry: GGAATGACTTGGGTTCTAACCTGTTGCCT (site GCAATGACTAG)
Result: hi

Q: Categorize the following entry: GCAGGGTCTTGGGTTCTAACCTGTTGCTT (site GCGGGGTCTAA)
Result: med
